System: T47D
Test: NCI tumour cell line growth inhibition, 48 h
Calls of active or inactive are those of the source. Cut-off read from the data, not from the text of the source: active = GI50 up to about 1.1 µM and inactive = higher.
Measured GI50 accompanies every entry in the list below.

Example entries begin here.
C#CCn1c(=O)c2cc(OC)c(OC)cc2n(CC#C)c1=O    > 10 µM (inactive)
COc1ccc2c(c1)CC1COc3cc(OC)ccc3C1O2 (centres undefined)    > 100 µM (inactive)
C=C1C(=O)C=C2C=C3C(=O)C(C)(C)C[C@]3(O)C12C (some centres undefined)    2.15 µM (inactive)

// below: GI50 requested for another compound
Ask: GET /values?readout=GI50&item= CN(N=O)C(=O)N[C@H]1C(O)O[C@H](CO)[C@@H](O)[C@@H]1O (some centres undefined)
Reply: 611 µM (inactive)
